biological target: Potassium-transporting ATPase (Sus scrofa); test: […] inhibit the activity of K+ stimulated gastric ATPase; format: tissue-based, Stomach
Sequence (P18434 whole entry): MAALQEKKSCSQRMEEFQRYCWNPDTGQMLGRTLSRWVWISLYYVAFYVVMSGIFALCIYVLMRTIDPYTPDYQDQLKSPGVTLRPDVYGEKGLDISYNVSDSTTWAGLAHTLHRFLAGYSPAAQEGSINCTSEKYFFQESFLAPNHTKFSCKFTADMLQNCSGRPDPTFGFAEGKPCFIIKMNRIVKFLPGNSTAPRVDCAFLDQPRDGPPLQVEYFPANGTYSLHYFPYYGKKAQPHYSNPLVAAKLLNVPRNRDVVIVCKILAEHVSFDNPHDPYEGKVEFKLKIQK
Sequence (P19156 whole entry): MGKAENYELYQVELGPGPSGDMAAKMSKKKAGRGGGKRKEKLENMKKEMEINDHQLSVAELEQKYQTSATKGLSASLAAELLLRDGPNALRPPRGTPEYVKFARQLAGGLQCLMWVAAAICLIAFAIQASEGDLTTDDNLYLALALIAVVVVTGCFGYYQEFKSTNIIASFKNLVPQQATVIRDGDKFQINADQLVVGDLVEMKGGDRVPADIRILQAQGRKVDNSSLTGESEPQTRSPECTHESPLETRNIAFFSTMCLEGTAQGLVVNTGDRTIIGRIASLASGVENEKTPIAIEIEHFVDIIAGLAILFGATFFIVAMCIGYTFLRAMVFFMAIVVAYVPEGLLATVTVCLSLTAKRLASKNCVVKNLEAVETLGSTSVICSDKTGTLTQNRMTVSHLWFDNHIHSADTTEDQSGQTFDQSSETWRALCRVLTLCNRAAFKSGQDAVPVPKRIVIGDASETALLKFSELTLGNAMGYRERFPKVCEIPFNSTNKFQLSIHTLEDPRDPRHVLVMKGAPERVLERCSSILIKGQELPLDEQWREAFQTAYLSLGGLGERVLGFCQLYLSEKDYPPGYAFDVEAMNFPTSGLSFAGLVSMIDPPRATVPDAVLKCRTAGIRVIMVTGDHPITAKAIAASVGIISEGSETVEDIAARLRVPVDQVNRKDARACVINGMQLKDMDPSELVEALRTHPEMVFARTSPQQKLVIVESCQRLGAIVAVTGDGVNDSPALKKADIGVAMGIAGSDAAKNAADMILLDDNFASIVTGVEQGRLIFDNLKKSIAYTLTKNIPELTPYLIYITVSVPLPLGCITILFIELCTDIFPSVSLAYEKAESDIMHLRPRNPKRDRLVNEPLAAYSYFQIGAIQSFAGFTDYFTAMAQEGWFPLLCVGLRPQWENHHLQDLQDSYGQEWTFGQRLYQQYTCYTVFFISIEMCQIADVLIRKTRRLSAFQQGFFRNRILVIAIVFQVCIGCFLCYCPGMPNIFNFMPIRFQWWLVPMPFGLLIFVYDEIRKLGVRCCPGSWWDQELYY
attribute.measured: IC50

compound=CCOC(=O)c1cnc2ccccc2c1Nc1ccccc1C attribute_measured=IC50 val="0.6 µM"
compound=COc1cccc2c(Nc3ccccc3C)c(C(=O)NCc3ccccc3)cnc12 attribute_measured=IC50 val="49 µM"
compound="CCCC(O)c1cnc2c(OC)cccc2c1Nc1ccccc1C (centres undefined)" attribute_measured=IC50 val="55 µM"
compound=CO/N=C(\C)c1cnc2c(OC)cccc2c1Nc1ccccc1C attribute_measured=IC50 val="20.5 µM"

====

biological target: Potassium-transporting ATPase (Sus scrofa); assay: […] inhibit the activity of K+ stimulated gastric ATPase; type: tissue-based, Stomach
Items are presented alongside their recorded IC50.
attribute.measured: IC50 (µM)

molecule_smiles=CCCC(=O)c1cnc2c(OC)cccc2c1Nc1ccccc1C target_or_test_system="Potassium-transporting ATPase (Sus scrofa)" val=1.05
molecule_smiles=COc1cccc2c(Nc3ccccc3C)c(C(=O)C(C)(C)C)cnc12 target_or_test_system="Potassium-transporting ATPase (Sus scrofa)" val=2.6
molecule_smiles=C=CCNC(=O)c1cnc2c(OC)cccc2c1Nc1ccccc1C target_or_test_system="Potassium-transporting ATPase (Sus scrofa)" val=3.45
